Target: T1, Chryseobacterium sp-62563 deamidase polypeptide (second polypeptide, deamidase domain), wildtype (Chryseobacterium sp-62563)
T1 sequence: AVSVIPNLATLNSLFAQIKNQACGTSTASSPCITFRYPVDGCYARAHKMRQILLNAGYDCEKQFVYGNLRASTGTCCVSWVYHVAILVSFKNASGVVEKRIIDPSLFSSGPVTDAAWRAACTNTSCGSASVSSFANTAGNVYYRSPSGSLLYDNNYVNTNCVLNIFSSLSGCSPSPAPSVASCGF
Experiment: cell-based or functional assay
Classification by Relative activity of maturated deamidase (% initial rate) | ranges: low interval: < 50; middle interval: ≥ 50 and < 80; high interval: ≥ 80

Prompt line: State the band of Chryseobacterium sp-62563 propeptide F99Y (protein) NQDPNLVAKESNETAMKDFGKTVPVGIEKEDGKFKISFMVTAQPYEIKDSKENAAYISMIKTAVENETPIHVFLKANTNEIAKVDKATDDDIRYFKSVYTKEVKEENRK
Response line: high interval

Prompt line: Similarly, Chryseobacterium sp-62563 propeptide K96Y (protein) NQDPNLVAKESNETAMKDFGKTVPVGIEKEDGKFKISFMVTAQPYEIKDSKENAAYISMIKTAVENETPIHVFLKANTNEIAKVDKATDDDIRYFYSVFTKEVKEENRK ?
Response line: middle interval

Prompt line: Similarly, Chryseobacterium sp-62563 propeptide K96F (protein) NQDPNLVAKESNETAMKDFGKTVPVGIEKEDGKFKISFMVTAQPYEIKDSKENAAYISMIKTAVENETPIHVFLKANTNEIAKVDKATDDDIRYFFSVFTKEVKEENRK ?
Response line: high interval

Prompt line: Similarly, Chryseobacterium sp-62563 propeptide F95H (protein) NQDPNLVAKESNETAMKDFGKTVPVGIEKEDGKFKISFMVTAQPYEIKDSKENAAYISMIKTAVENETPIHVFLKANTNEIAKVDKATDDDIRYHKSVFTKEVKEENRK ?
Response line: middle interval

Prompt line: Similarly, Chryseobacterium sp-62563 propeptide T88G (protein) NQDPNLVAKESNETAMKDFGKTVPVGIEKEDGKFKISFMVTAQPYEIKDSKENAAYISMIKTAVENETPIHVFLKANTNEIAKVDKAGDDDIRYFKSVFTKEVKEENRK ?
Response line: middle interval

Prompt line: Similarly, Chryseobacterium sp-62563 propeptide F95K (protein) NQDPNLVAKESNETAMKDFGKTVPVGIEKEDGKFKISFMVTAQPYEIKDSKENAAYISMIKTAVENETPIHVFLKANTNEIAKVDKATDDDIRYKKSVFTKEVKEENRK ?
Response line: high interval

Prompt line: Similarly, Chryseobacterium sp-62563 propeptide I92M (protein) NQDPNLVAKESNETAMKDFGKTVPVGIEKEDGKFKISFMVTAQPYEIKDSKENAAYISMIKTAVENETPIHVFLKANTNEIAKVDKATDDDMRYFKSVFTKEVKEENRK ?
Response line: low interval

Prompt line: Similarly, Chryseobacterium sp-62563 propeptide V98E (protein) NQDPNLVAKESNETAMKDFGKTVPVGIEKEDGKFKISFMVTAQPYEIKDSKENAAYISMIKTAVENETPIHVFLKANTNEIAKVDKATDDDIRYFKSEFTKEVKEENRK ?
Response line: high interval

Prompt line: Similarly, Chryseobacterium sp-62563 propeptide E67R (protein) NQDPNLVAKESNETAMKDFGKTVPVGIEKEDGKFKISFMVTAQPYEIKDSKENAAYISMIKTAVENRTPIHVFLKANTNEIAKVDKATDDDIRYFKSVFTKEVKEENRK ?
Response line: high interval

Prompt line: Similarly, Chryseobacterium sp-62563 propeptide Q43K (protein) NQDPNLVAKESNETAMKDFGKTVPVGIEKEDGKFKISFMVTAKPYEIKDSKENAAYISMIKTAVENETPIHVFLKANTNEIAKVDKATDDDIRYFKSVFTKEVKEENRK ?
Response line: middle interval

Prompt line: Similarly, Chryseobacterium sp-62563 propeptide Y45I (protein) NQDPNLVAKESNETAMKDFGKTVPVGIEKEDGKFKISFMVTAQPIEIKDSKENAAYISMIKTAVENETPIHVFLKANTNEIAKVDKATDDDIRYFKSVFTKEVKEENRK ?
Response line: high interval

Prompt line: Similarly, Chryseobacterium sp-62563 propeptide L74S (protein) NQDPNLVAKESNETAMKDFGKTVPVGIEKEDGKFKISFMVTAQPYEIKDSKENAAYISMIKTAVENETPIHVFSKANTNEIAKVDKATDDDIRYFKSVFTKEVKEENRK ?
Response line: low interval

Prompt line: Similarly, Chryseobacterium sp-62563 propeptide E67W (protein) NQDPNLVAKESNETAMKDFGKTVPVGIEKEDGKFKISFMVTAQPYEIKDSKENAAYISMIKTAVENWTPIHVFLKANTNEIAKVDKATDDDIRYFKSVFTKEVKEENRK ?
Response line: high interval

Prompt line: Similarly, Chryseobacterium sp-62563 propeptide K96M (protein) NQDPNLVAKESNETAMKDFGKTVPVGIEKEDGKFKISFMVTAQPYEIKDSKENAAYISMIKTAVENETPIHVFLKANTNEIAKVDKATDDDIRYFMSVFTKEVKEENRK ?
Response line: low interval
